The measurements presented in this section are drawn from patent US20140120095A1.

The following binders are shown together with reported % inh values.
molecular target: T1, human DLL4, full length, overexpressed on cells (human, UniProt Q9NR61 27-685); test: FMAT, hNotch1-Fc on CHO-hDLL4, -HSA
T1 construct: CHO cells in FMAT, HEK293 cells in the reporter assay; also called hDLL4; CHO-hDLL4
Express your answer in %, writing the number without its unit.

(Q) Using the record for VEGFDLLBII013 (bispecific antibody, PEGylated at the Cys at position 15 of the 35 Gly-Ser linker, VEGFBII23B04 - 35GS(Cys15) - DLLBII129B05) EVQLVESGGGLVQTGDSLRLSCEVSGRTFSSYSMGWFRQAQGKEREFVVAISKGGYKYDSVSLEGRFTISKDNAKNTVYLQINSLKPEDTAVYYCASSRAYGSSRLRLADTYEYWGQGTQVTVSSGGGGSGGGGSGGGGCGGGGSGGGGSGGGGSGGGGSEVQLVESGGGLVQAGGSLRLSCAASGRTFSSYAMAWYRQAPGKEREYVAAIRWSGGTAYYADSVQGRFTISRDNAKNTVYLQMNSLKPEDTAVYYCANRAPDTRLAPYEYDHWGQGTQVTVSS , report its % inh.
(A) 100

(Q) VEGFDLLBII012 (bispecific antibody, PEGylated at the Cys at position 15 of the 35 Gly-Ser linker, VEGFBII23B04 - 35GS(Cys15) - DLLBII136C07) EVQLVESGGGLVQTGDSLRLSCEVSGRTFSSYSMGWFRQAQGKEREFVVAISKGGYKYDSVSLEGRFTISKDNAKNTVYLQINSLKPEDTAVYYCASSRAYGSSRLRLADTYEYWGQGTQVTVSSGGGGSGGGGSGGGGCGGGGSGGGGSGGGGSGGGGSEVQLVESGGGLVQPGGSLRLSCAASGFTFGSYDMSWVRRSPGKGPEWVSSINSGGGSTYYADYVKGRFTISRDNAKNTLYLQMNSLKPEDTAVYYCAADRYIWARQGEYWGAYEYDYWGQGTQVTVSS , same question.
(A) 100

(Q) DLLBII129B05 (VHH, not shown: small tags and cut ends) VHH: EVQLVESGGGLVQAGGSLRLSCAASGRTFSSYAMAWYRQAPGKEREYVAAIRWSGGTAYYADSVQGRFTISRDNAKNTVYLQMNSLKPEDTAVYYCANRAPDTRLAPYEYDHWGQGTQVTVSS , same question.
(A) 90

(Q) DLLBII136C07 (VHH, not shown: small tags and cut ends) VHH: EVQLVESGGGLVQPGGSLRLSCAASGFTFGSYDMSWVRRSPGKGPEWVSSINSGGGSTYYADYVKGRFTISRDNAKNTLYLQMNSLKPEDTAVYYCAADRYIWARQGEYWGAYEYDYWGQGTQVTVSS , same question.
(A) 94
